Taken from paper PMC9092470.

biological target: T1, GST-p300 (GST-tagged p300 CH1 domain, residues 330-420) (human, UniProt Q09472 330-420); assay: fluorescence polarisation; fluorescence anisotropy competition; 5 nM FAM-HIF786-826 as tracer, two-fold dilution series of the competitor from 10 µM over 24 points; 25 mM Tris-HCl, 150 mM NaCl, 1 mM DTT, pH 7.4; concentration of p300 not stated; details: both partners purified
T1 construct: human p300, CH1 domain (zinc finger, TAZ type 1), residues 330-420; For the fluorescence anisotropy experiments the GST cleavage step was omitted (D1:p17); source: E. coli (pGEX-6P-2 in Rosetta 2 or pGEX-4T-1 in BL21 pLysS), glutathione beads, eluted with glutathione, SEC
T1 sequence (Q09472 330-420): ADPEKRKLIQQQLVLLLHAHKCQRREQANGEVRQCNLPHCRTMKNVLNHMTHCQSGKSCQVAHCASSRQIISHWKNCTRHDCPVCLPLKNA
readout_type: pIC50
Remember the convention: pIC50 equals -log10 of concentration in molar.

Please give measured pIC50 of the following entry: GPGSSMDESGLPQLTSYDCEVNAPIQGSRNLLQGEELLRALDQVN (four residues (Gly-Pro-Gly-Ser) left from the PreScission protease site; source: E. coli Rosetta 2, from inclusion bodies, His-trap, on-column PreScission cleavage, RP-HPLC; not shown: GFP, N-terminal, cleaved) [HIF-1α786-826 (expressed, His10-GFP cleaved off)]
7.23
